test: bulk density; format: physicochemical; conditions: Table 3, carrier materials
Measured Endpoint: Bulk density in g/100 ml (g/100 ml)

Use these answered entries as a reference point.
>>> print(df.to_string())
                                   compound  display_unit  obs_value
0  O.O.O=C([O-])CC(O)(CC(=O)[O-])C(=O)[O-].[Na+].[Na+].[Na+] [trisodiumcitrate.2H2O]      g/100 ml         95
1  OC[C@@H](O)[C@@H](O)[C@H](O)[C@@H](O)CO [sorbitol (spray dried), sorbitol]      g/100 ml         45
2  OC[C@@H](O)[C@@H](O)[C@H](O)[C@H](O)CO [mannitol (spray dried), mannitol]      g/100 ml         45
3  OC[C@H]1O[C@@H](O[C@H]2[C@H](O)[C@@H](O)C(O)O[C@@H]2CO)[C@H](O)[C@@H](O)[C@H]1O (stereo partly shown)      g/100 ml         69
4  OC[C@@H](O)[C@@H](O)[C@H](O)[C@@H](O)CO [sorbitol]      g/100 ml         58

A = OC[C@H]1O[C@@](CO)(O[C@H]2O[C@H](CO)[C@@H](O)[C@H](O)[C@H]2O)[C@@H](O)[C@@H]1O
B = OC[C@@H](O)[C@@H](O[C@H]1O[C@H](CO)[C@@H](O)[C@H](O)[C@H]1O)[C@H](O)[C@@H](O)CO [hydrogenated maltose]
Two entries are listed, A and B . Which one carries the higher Bulk density in g/100 ml? // return label of chosen record B
